Test system: Plasmodium berghei
experiment-notes: Luciferase/luciferin-expressing antifolate-resistant parasites were used to infect a culture of HepG2 cells that were pre-incubated with compounds. Infected hepatocytes emit light due to the luciferase reaction. Assay results are presented as the percent inhibition of light emission compared to control. […]
Assay type: functional
conditions-used: sporozoite, HEPG2TOX_HILL_SLOPE 17.2, HEPG2TOX_R_SQUARED 0.602, PBLUC_HILL_SLOPE 5.41, PBLUC_R_SQUARED 0.643, read-out: LUCIFERASE INFECTION ASSAY - IC50
property-measured: IC50 (µM)
Respond with the bare value in µM.

// IC50 lookup, key: `CN(C)CCCN1C(=O)N(CCc2ccccc2)C2(CCN(Cc3cn(C)c4ccccc34)CC2)C1=O`
4.13

---

System: Plasmodium berghei
experiment-notes: Luciferase/luciferin-expressing antifolate-resistant parasites were used to infect a culture of HepG2 cells that were pre-incubated with compounds. Infected hepatocytes emit light due to the luciferase reaction. Assay results are presented as the percent inhibition of light emission compared to control. […]
Format: functional
conditions-used: sporozoite, read-out: LUCIFERASE INFECTION ASSAY - IC90
property-measured: IC90 (µM)
Respond with the bare value in µM.

Cc1ccc2nc(NC(=O)c3ccc(F)cc3)c(C(=O)NC3CCCCC3)n2c1 = 4.51

Now for another entry.
// IC90 lookup, key: `Clc1ccc(CN=C(Nc2ccccc2)NC2CCCCC2)cc1`
9.45

---

Test system: Plasmodium berghei
experiment-notes: Luciferase/luciferin-expressing antifolate-resistant parasites were used to infect a culture of HepG2 cells that were pre-incubated with compounds. Infected hepatocytes emit light due to the luciferase reaction. Assay results are presented as the percent inhibition of light emission compared to control. […]
Assay type: functional
conditions-used: sporozoite, PBLUC_HILL_SLOPE 3.7, PBLUC_R_SQUARED 0.815, read-out: LUCIFERASE INFECTION ASSAY - IC50
property-measured: pIC50
In textbook form, pIC50 equals minus log to base ten of the concentration in mol/L.

// pIC50 lookup, key: CCOc1ccc(S(=O)(=O)/N=C2\C=C3N(CCO)CCOC3(O)c3ccccc32)cc1 (stereo unspecified)
5.14

---

Test system: Plasmodium berghei
experiment-notes: Luciferase/luciferin-expressing antifolate-resistant parasites were used to infect a culture of HepG2 cells that were pre-incubated with compounds. Infected hepatocytes emit light due to the luciferase reaction. Assay results are presented as the percent inhibition of light emission compared to control. […]
Assay type: functional
conditions-used: sporozoite, HEPG2TOX_HILL_SLOPE 7.53, HEPG2TOX_R_SQUARED 0.526, PBLUC_HILL_SLOPE 15.5, PBLUC_R_SQUARED 0.267, read-out: LUCIFERASE INFECTION ASSAY - IC50
property-measured: IC50

// IC50 lookup, key: CC(Sc1nnc(-c2ccc(C(C)(C)C)cc2)o1)C(=O)Nc1ncc(Cl)cc1Cl (stereo unspecified)
3.13 µM

---

Tested on: Plasmodium berghei
experiment-notes: Luciferase/luciferin-expressing antifolate-resistant parasites were used to infect a culture of HepG2 cells that were pre-incubated with compounds. Infected hepatocytes emit light due to the luciferase reaction. Assay results are presented as the percent inhibition of light emission compared to control. […]
Format: functional
conditions-used: sporozoite, PBLUC_HILL_SLOPE 104, PBLUC_R_SQUARED 0.386, read-out: LUCIFERASE INFECTION ASSAY - IC50
property-measured: IC50 (µM)
Respond with the bare value in µM.

// IC50 lookup, key: COc1ccc(CC(N)c2csc(NC(=O)Nc3ccccc3C(C)(C)C)n2)cc1 (stereo unspecified)
4.18

---

Tested on: Plasmodium berghei
experiment-notes: Luciferase/luciferin-expressing antifolate-resistant parasites were used to infect a culture of HepG2 cells that were pre-incubated with compounds. Infected hepatocytes emit light due to the luciferase reaction. Assay results are presented as the percent inhibition of light emission compared to control. […]
Assay type: functional
conditions-used: sporozoite, FFLUC_HILL_SLOPE 13.5, FFLUC_R_SQUARED 0.414, HEPG2TOX_HILL_SLOPE 0.395, HEPG2TOX_R_SQUARED 0.365, read-out: LUCIFERASE INFECTION ASSAY - IC50
property-measured: IC50

// IC50 lookup, key: Cc1ccc(-c2csc3[nH]c(CNC(C)c4ccc5c(c4)CCCC5)nc(=O)c23)s1 (stereo unspecified)
> 10 µM

---

System: Plasmodium berghei
experiment-notes: Luciferase/luciferin-expressing antifolate-resistant parasites were used to infect a culture of HepG2 cells that were pre-incubated with compounds. Infected hepatocytes emit light due to the luciferase reaction. Assay results are presented as the percent inhibition of light emission compared to control. […]
Format: functional
conditions-used: sporozoite, FFLUC_HILL_SLOPE 13.2, FFLUC_R_SQUARED 0.418, read-out: LUCIFERASE INFECTION ASSAY - IC50
pIC50: −log10 of the molar value.
property-measured: pIC50

// pIC50 lookup, key: `COc1cccc(-c2[nH]nc3ccnc(-c4ccc(C(C)C)cc4)c23)c1`
< 5.00

---

System: Plasmodium berghei
experiment-notes: Luciferase/luciferin-expressing antifolate-resistant parasites were used to infect a culture of HepG2 cells that were pre-incubated with compounds. Infected hepatocytes emit light due to the luciferase reaction. Assay results are presented as the percent inhibition of light emission compared to control. […]
Assay type: functional
conditions-used: sporozoite, PBLUC_HILL_SLOPE 1.29, PBLUC_R_SQUARED 0.521, read-out: LUCIFERASE INFECTION ASSAY - IC50
property-measured: IC50 (µM)
Respond with the bare value in µM.

// IC50 lookup, key: `Cc1cc(CSc2ccccc2)ccc1NC(=O)Nc1ccccc1`
2.22

---

Test system: Plasmodium berghei
experiment-notes: Luciferase/luciferin-expressing antifolate-resistant parasites were used to infect a culture of HepG2 cells that were pre-incubated with compounds. Infected hepatocytes emit light due to the luciferase reaction. Assay results are presented as the percent inhibition of light emission compared to control. […]
Type: functional
conditions-used: sporozoite, PBLUC_HILL_SLOPE 1.76, PBLUC_R_SQUARED 0.46, read-out: LUCIFERASE INFECTION ASSAY - IC50
property-measured: IC50 (µM)
Respond with the bare value in µM.

// IC50 lookup, key: Cc1cccc(/C=C2\CC(C#N)(c3ccccc3)C/C(=C\c3cccc(C)c3)C2=O)c1 (stereo unspecified)
9.05

---

Test system: Plasmodium berghei
experiment-notes: Luciferase/luciferin-expressing antifolate-resistant parasites were used to infect a culture of HepG2 cells that were pre-incubated with compounds. Infected hepatocytes emit light due to the luciferase reaction. Assay results are presented as the percent inhibition of light emission compared to control. […]
Type: functional
conditions-used: sporozoite, HEPG2TOX_HILL_SLOPE 2.33, HEPG2TOX_R_SQUARED 0.906, PBLUC_HILL_SLOPE 19.2, PBLUC_R_SQUARED 0.577, read-out: LUCIFERASE INFECTION ASSAY - IC50
property-measured: IC50 (µM)
Respond with the bare value in µM.

Query the reported IC50 for Plasmodium berghei; item: `CC(C)(C)CC(C)(C)NC(=O)c1cccc(S(=O)(=O)N2CCc3ccccc32)c1`
9.58

---

Tested on: Plasmodium berghei
experiment-notes: Luciferase/luciferin-expressing antifolate-resistant parasites were used to infect a culture of HepG2 cells that were pre-incubated with compounds. Infected hepatocytes emit light due to the luciferase reaction. Assay results are presented as the percent inhibition of light emission compared to control. […]
Type: functional
conditions-used: sporozoite, PBLUC_HILL_SLOPE 0.781, PBLUC_R_SQUARED 0.696, read-out: LUCIFERASE INFECTION ASSAY - IC50
property-measured: pIC50
In textbook form, pIC50 equals minus log to base ten of the concentration in mol/L.

// pIC50 lookup, key: `Cc1noc(C)c1S(=O)(=O)N(Cc1ccc(C(=O)NC2CC2)cc1)C1CC1`
6.68

---

Tested on: Plasmodium berghei
experiment-notes: Luciferase/luciferin-expressing antifolate-resistant parasites were used to infect a culture of HepG2 cells that were pre-incubated with compounds. Infected hepatocytes emit light due to the luciferase reaction. Assay results are presented as the percent inhibition of light emission compared to control. […]
Type: functional
conditions-used: sporozoite, HEPG2TOX_HILL_SLOPE 5.43, HEPG2TOX_R_SQUARED 0.0351, read-out: LUCIFERASE INFECTION ASSAY - IC50
pIC50: −log10 of the molar value.
property-measured: pIC50

// pIC50 lookup, key: `N#Cc1cccc(CN2CCN3C(C(=O)Nc4ccc(Oc5ccccc5)cc4)=COC3=NC2=O)c1`
< 5.00

---

Test system: Plasmodium berghei
experiment-notes: Luciferase/luciferin-expressing antifolate-resistant parasites were used to infect a culture of HepG2 cells that were pre-incubated with compounds. Infected hepatocytes emit light due to the luciferase reaction. Assay results are presented as the percent inhibition of light emission compared to control. […]
Type: functional
conditions-used: sporozoite, HEPG2TOX_HILL_SLOPE 1.65, HEPG2TOX_R_SQUARED 0.259, read-out: LUCIFERASE INFECTION ASSAY - IC50
property-measured: IC50

Query the reported IC50 for Plasmodium berghei; item: `CC(C)c1cccc(NS(=O)(=O)c2c[nH]c(C(=O)N3CCCC3)c2)c1`
> 10 µM
